study.system: 5-hydroxytryptamine receptor 1A (Homo sapiens, UniProt P08908); also: assay procedure not described here
Sequence (P08908 whole entry): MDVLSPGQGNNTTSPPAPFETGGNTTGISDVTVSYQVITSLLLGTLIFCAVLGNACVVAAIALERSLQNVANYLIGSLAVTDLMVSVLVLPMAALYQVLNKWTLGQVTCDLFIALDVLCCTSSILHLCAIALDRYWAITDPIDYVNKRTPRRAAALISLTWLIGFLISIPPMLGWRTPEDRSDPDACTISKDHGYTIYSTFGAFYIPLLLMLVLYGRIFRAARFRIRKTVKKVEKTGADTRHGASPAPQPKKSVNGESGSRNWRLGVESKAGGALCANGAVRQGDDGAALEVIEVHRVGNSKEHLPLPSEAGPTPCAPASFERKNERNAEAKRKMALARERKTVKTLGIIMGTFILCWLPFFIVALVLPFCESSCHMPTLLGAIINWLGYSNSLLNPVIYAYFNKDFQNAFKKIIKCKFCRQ
Recorded AC50 for the following compounds

These recorded examples may help you get a feel for the data.
C=CC(=O)Nc1cccc(Oc2nc(Nc3ccc(N4CCN(C)CC4)cc3)nc3ccsc23)c1    2.44 µM
C#C[C@]1(O)C=C[C@H]2[C@@H]3CCC4=CC(=O)CC[C@@H]4[C@H]3CC[C@@]21CC    > 30 µM
C[C@@H]1C[C@H]2[C@@H]3C[C@H](F)C4=CC(=O)C=C[C@]4(C)[C@H]3[C@@H](O)C[C@]2(C)[C@@]1(O)C(=O)CO    > 30 µM
CC(C)(C)NC(=O)N[C@H](C(=O)N1C[C@H]2[C@@H]([C@H]1C(=O)NC(CC1CCC1)C(=O)C(N)=O)C2(C)C)C(C)(C)C (stereo not given in full)    > 30 µM
N#Cc1ccc(Oc2ccc3c(c2)COB3O)cc1    > 30 µM

Lab note: 5-hydroxytryptamine receptor 1A (Homo sapiens, UniProt P08908) assay, enter AC50 for `COc1cccc(C(=O)CCN[C@@H](C)[C@H](O)c2ccccc2)c1` here
0.0096 µM

Return reported AC50 for target or system 5-hydroxytryptamine receptor 1A (Homo sapiens, UniProt P08908), item `NC(=O)[C@@H]1CC[C@@H]2CN1C(=O)N2OS(=O)(=O)O` . Also: assay procedure not described here.
> 30 µM

Lab note: record AC50 of `CC(C)C[C@H](NC(=O)[C@@H](O)[C@H](N)Cc1ccccc1)C(=O)O` tested on 5-hydroxytryptamine receptor 1A (Homo sapiens, UniProt P08908). Also: assay procedure not described here.
> 30 µM

Report AC50 under test system 5-hydroxytryptamine receptor 1A (Homo sapiens, UniProt P08908) for `CC1(C)S[C@@H]2[C@H](/N=C/N3CCCCCC3)C(=O)N2[C@H]1C(=O)O` . Also: assay procedure not described here.
> 30 µM

Print 5-hydroxytryptamine receptor 1A (Homo sapiens, UniProt P08908) AC50 for `C[C@]12C=CC(=O)C=C1CC[C@H]1[C@@H]3C[C@@H](O)[C@](O)(C(=O)CO)[C@@]3(C)C[C@H](O)[C@@]12F` .
> 30 µM

---

What follows is a record of AC50 for Melanocortin receptor 3 (Homo sapiens, UniProt P41968).

CCC1(c2ccc(N)cc2)CCC(=O)NC1=O (stereo not drawn) [AMINOGLUTETHIMIDE]    > 30 µM

Quickly give me recorded AC50 for CC(c1cc2ccccc2s1)N(O)C(N)=O (stereo not drawn)
> 10 µM

Check the records and state AC50 for `O=C1Cc2cc(CCN3CCN(c4nsc5ccccc45)CC3)c(Cl)cc2N1`
> 30 µM

Consider the compound `CC[C@H](C)C(=O)O[C@H]1C[C@@H](C)C=C2C=C[C@H](C)[C@H](CC[C@@H]3C[C@@H](O)CC(=O)O3)[C@H]21` . State its measured AC50.
> 30 µM

Respond only with AC50 recorded for `COc1ccc(C2C(=O)c3ccccc3C2=O)cc1`
> 10 µM

Give the value of AC50 reported for the following: `COc1ccc(CN2CCN(C(c3ccc(F)cc3)c3ccc(F)cc3)CC2)c(OC)c1OC`
> 30 µM

Write down AC50 measured for item CC[C@@H](CO)NC(=O)[C@@H]1C=C2c3cccc4c3c(cn4C)C[C@H]2N(C)C1 [METHYSERGIDE]
> 30 µM

Item `CCOc1cc([C@@H](CS(C)(=O)=O)N2C(=O)c3cccc(NC(C)=O)c3C2=O)ccc1OC` : provide AC50
> 30 µM

---

study.system: Alpha-2A adrenergic receptor (Homo sapiens); also: assay procedure not described here
Sequence (P08913 whole entry): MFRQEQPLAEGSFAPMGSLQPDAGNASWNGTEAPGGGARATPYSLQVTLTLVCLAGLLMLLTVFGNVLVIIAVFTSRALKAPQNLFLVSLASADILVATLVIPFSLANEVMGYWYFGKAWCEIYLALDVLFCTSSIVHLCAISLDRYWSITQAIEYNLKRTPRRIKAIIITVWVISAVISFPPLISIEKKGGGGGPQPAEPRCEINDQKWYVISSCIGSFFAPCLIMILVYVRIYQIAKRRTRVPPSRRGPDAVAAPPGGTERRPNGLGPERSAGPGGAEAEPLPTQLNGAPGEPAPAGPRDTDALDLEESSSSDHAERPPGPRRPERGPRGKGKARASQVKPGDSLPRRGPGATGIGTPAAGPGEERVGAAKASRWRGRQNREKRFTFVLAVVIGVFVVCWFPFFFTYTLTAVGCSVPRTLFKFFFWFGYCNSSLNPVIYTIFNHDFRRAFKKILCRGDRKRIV
Type: functional, cell-based
Listed below: AC50 values for each entry.

COC(=O)C1=C(C)NC(C)=C(C(=O)OCCN2CCN(C(c3ccccc3)c3ccccc3)CC2)C1c1cccc([N+](=O)[O-])c1 (stereo not given) [MANIDIPINE 6300]    > 30 µM
C=CCN1CCc2nc(N)sc2CC1 [TALIPEXOLE]    0.083 µM
c1ccc(C2(N3CCCCC3)CCCCC2)cc1 [PHENCYCLIDINE]    > 30 µM
C[N+](C)(C)CCOP(=O)([O-])OC[C@H](O)CO    > 30 µM
O=C(c1cc(Cc2n[nH]c(=O)c3ccccc23)ccc1F)N1CCN(C(=O)C2CC2)CC1 [OLAPARIB]    > 10 µM

For CC1=C(/C=C/C(C)=C/C=C/C(C)=C/CO)C(C)(C)CCC1 [RETINOL] , write its AC50.
> 10 µM

Read the entry COc1cc2[nH]c(C)c(CCN3CCN(c4ccccc4)CC3)c2cc1OC [OXYPERTINE] and write its reported AC50.
> 30 µM

Supply recorded AC50 for CC(C(=O)O)c1ccc2oc(-c3ccc(Cl)cc3)nc2c1 (stereo not given) [BENOXAPROFEN] here.
> 30 µM

Quickly give me recorded AC50 for CCCCCCCN(CC)CCCC(O)c1ccc(NS(C)(=O)=O)cc1 (stereo not given) [IBUTILIDE]
> 30 µM

Supply reported AC50 belonging to this compound: C/C=C(/C(=C/C)c1ccc(O)cc1)c1ccc(O)cc1 [DIENESTROL]
> 10 µM

Annotate the compound CC(=O)[C@H]1CC[C@H]2[C@@H]3C[C@H](C)C4=CC(=O)CC[C@]4(C)[C@H]3[C@@H](O)C[C@]12C [MEDRYSONE] with its measured AC50.
> 10 µM

Name the recorded AC50 of the compound listed here: CCOC(=O)c1ccc(C#Cc2ccc3c(c2)C(C)(C)CCS3)nc1 [TAZAROTENE]
> 10 µM

For the compound Clc1ccc(CCC(Cn2ccnc2)Sc2c(Cl)cccc2Cl)cc1 (stereo not given) [BUTOCONAZOLE] , give its reported AC50.
> 30 µM

---

In what follows, each item is paired with its AC50 for Melanocortin receptor 3 (Homo sapiens, UniProt P41968).

Please review the entries below; each comes with its answer.
CCc1cc2c(s1)-n1c(C)nnc1CN=C2c1ccccc1Cl    > 30 µM
CC(C)[C@@H](C)/C=C/[C@@H](C)[C@H]1CC[C@H]2/C(=C/C=C3\C[C@@H](O)CC[C@@H]3C)CCC[C@]12C [DIHYDROTACHYSTEROL]    > 10 µM
CCCc1nc2c(C)cc(-c3nc4ccccc4n3C)cc2n1Cc1ccc(-c2ccccc2C(=O)O)cc1    > 30 µM
Oc1ccc(CCNCCCCCCNCCc2ccccc2)cc1O    > 30 µM
CN1CCN=C(c2ccccc2)c2cc(Cl)ccc21    > 30 µM
Cc1nc(Nc2ncc(C(=O)Nc3c(C)cccc3Cl)s2)cc(N2CCN(CCO)CC2)n1    > 30 µM
CC(C)[C@H](N)C(=O)OCCOCn1cnc2c(=O)[nH]c(N)nc21    > 30 µM
O=c1c(O)c(-c2ccc(O)c(O)c2)oc2cc(O)cc(O)c12    > 30 µM

Note: attention shifts to another entry.
Would you please give the reported AC50 of CN(CCOc1ccc(CC2SC(=O)NC2=O)cc1)c1ccccn1 (centres undefined) with Melanocortin receptor 3 (Homo sapiens, UniProt P41968)?
20.8 µM

Entry source: ChEMBL document CHEMBL5291721
